The measured values listed here are drawn from patent US20190106460A1.

# System Under Test: β-TrCP1/Skp1 (Homo sapiens, UniProt Q9Y297)
# Sequence (Q9Y297 whole entry): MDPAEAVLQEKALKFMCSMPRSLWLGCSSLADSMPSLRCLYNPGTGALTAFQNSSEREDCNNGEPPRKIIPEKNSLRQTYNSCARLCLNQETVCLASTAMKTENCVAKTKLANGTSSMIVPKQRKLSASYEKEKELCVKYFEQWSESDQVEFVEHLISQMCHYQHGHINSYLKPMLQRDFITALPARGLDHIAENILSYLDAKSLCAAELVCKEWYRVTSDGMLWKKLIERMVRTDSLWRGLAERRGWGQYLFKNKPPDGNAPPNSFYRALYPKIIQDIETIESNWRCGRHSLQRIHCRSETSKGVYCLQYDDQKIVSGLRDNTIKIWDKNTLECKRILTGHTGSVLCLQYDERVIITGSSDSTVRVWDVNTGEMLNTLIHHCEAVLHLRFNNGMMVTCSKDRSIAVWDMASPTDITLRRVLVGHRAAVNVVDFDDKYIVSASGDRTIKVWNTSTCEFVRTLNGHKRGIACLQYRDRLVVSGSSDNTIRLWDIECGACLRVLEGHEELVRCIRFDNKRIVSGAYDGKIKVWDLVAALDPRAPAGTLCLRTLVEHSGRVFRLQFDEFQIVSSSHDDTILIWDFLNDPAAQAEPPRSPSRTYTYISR
# Sequence (P63208 2-163 partner limits assumed): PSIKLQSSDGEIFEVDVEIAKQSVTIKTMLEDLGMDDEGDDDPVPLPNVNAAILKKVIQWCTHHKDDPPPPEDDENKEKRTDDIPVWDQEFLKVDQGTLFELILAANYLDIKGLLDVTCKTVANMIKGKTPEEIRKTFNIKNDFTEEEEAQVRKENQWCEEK
# Experimental Protocol: βTrCP ubiquitination assay (Ub assay)
# Assay type: biochemical
# Assay Context: 100 μM compound
Starred links: 1 amine or outer side, 2 acyl side, 3 side chain; linkers in the order of their positions; H or OH if unused. Non-standard residues stand in square brackets, D forms with d. Residues, ends and D or L forms follow the SMILES beside them. *: point of attachment. Phe(4-NO2) = N[C@@H](Cc1ccc([N+](=O)[O-])cc1)C(=O)O; Phe(3-F) = N[C@@H](Cc1cccc(F)c1)C(=O)O; Phe(2-F) = N[C@@H](Cc1ccccc1F)C(=O)O; NMeE = CN[C@@H](CCC(=O)O)C(=O)O; Suc = O=C(CCC(=O)[*:2])[*:1]; Tos = Cc1ccc(S(=O)(=O)*)cc1
Measured Metric: Ub Assay 100 μM

Identify measured Ub Assay 100 μM associated with Cc1ccc(S(=O)(=O)N[C@H](CC(=O)O)C(=O)N[C@@H](CCC(=O)O)C(=O)NCC(=O)N[C@@H](Cc2cccc(F)c2)C(=O)N[C@@H](Cc2c[nH]c3ccccc23)C(=O)N(C)[C@@H](CCC(=O)O)C(N)=O)cc1 [UBP032, Ts-dEGF(3F)WE(Me)-NH2] (Tos-[dD]EG[Phe(3-F)]W[NMeE]-NH2)
inhibits

Identify measured Ub Assay 100 μM associated with NC(=O)[C@H](CCC(=O)O)NC(=O)[C@H](Cc1ccc([N+](=O)[O-])cc1)NC(=O)[C@H](Cc1ccccc1F)NC(=O)CNC(=O)[C@H](CCC(=O)O)NC(=O)CCC(=O)O [UBP003, Suc-EGF(2F)F(4NO2)E-NH2] (Suc-EG[Phe(2-F)][Phe(4-NO2)]E-NH2)
inhibits
